# subject_of_test: rNK1 (Rattus norvegicus, UniProt P14600)
# Sequence (P14600 whole entry): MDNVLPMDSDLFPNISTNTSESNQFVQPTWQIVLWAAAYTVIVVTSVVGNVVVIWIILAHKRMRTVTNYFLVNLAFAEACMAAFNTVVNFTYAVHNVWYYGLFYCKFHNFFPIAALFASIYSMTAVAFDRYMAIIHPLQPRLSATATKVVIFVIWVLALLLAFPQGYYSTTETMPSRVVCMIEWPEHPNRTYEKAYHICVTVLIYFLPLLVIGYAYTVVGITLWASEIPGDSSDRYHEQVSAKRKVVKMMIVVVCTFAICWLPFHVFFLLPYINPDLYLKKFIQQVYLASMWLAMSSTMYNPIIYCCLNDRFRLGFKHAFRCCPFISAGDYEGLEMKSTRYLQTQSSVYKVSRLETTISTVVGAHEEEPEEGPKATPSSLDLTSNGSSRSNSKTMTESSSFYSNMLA
# test: Radioligand binding assay at rat NK1 receptor
# particulars: Ki^rNK1 (nM)
Non-standard residues stand in square brackets, D forms with d. Residues, ends and D or L forms follow the SMILES beside them. *: point of attachment. NH(3,5-(CF3)2-benzyl) = FC(F)(F)c1cc(CN*)cc(C(F)(F)F)c1; NMeF = CN[C@@H](Cc1ccccc1)C(=O)O

compound	subject_of_test	Ki [nM]
CC(C)C[C@H](NC(=O)[C@@H]1CCCN1C(=O)CNC(=O)[C@H](CO)NC(=O)[C@H](Cc1ccccc1)N(C)C(=O)CNC(=O)[C@@H](C)NC(=O)[C@@H](N)Cc1ccc(O)cc1)C(=O)N[C@@H](Cc1c[nH]c2ccccc12)C(=O)NCc1cc(C(F)(F)F)cc(C(F)(F)F)c1 [AKG-CRA-136] (H-Y[dA]G[NMeF]SGPLW-{NH(3,5-(CF3)2-benzyl)})	rNK1 (Rattus norvegicus, UniProt P14600)	156
CC(C)C[C@H](NC(=O)[C@@H]1CCCN1C(=O)[C@@H](CO)NC(=O)[C@H](Cc1ccccc1)NC(=O)CNC(=O)[C@@H](C)NC(=O)[C@@H](N)Cc1ccc(O)cc1)C(=O)N[C@@H](Cc1c[nH]c2ccccc12)C(=O)NCc1cc(C(F)(F)F)cc(C(F)(F)F)c1 [AKG101]	rNK1 (Rattus norvegicus, UniProt P14600)	110
CC(C)C[C@H](NC(=O)[C@@H]1CCCN1C(=O)[C@H](Cc1ccccc1)N(C)C(=O)[C@H](Cc1c[nH]c2ccccc12)NC(=O)[C@@H]1CCCN1C(=O)[C@@H](N)Cc1ccc(O)cc1)C(=O)N[C@@H](Cc1c[nH]c2ccccc12)C(=O)NCc1cc(C(F)(F)F)cc(C(F)(F)F)c1 [AKG223] (H-YPW[NMeF]PLW-{NH(3,5-(CF3)2-benzyl)})	rNK1 (Rattus norvegicus, UniProt P14600)	10.1

* * *

# subject_of_test: hNK1 (Homo sapiens, UniProt P25103)
# Construct: expressed in transfected cells; host or cells: CHO
# Sequence (P25103 whole entry): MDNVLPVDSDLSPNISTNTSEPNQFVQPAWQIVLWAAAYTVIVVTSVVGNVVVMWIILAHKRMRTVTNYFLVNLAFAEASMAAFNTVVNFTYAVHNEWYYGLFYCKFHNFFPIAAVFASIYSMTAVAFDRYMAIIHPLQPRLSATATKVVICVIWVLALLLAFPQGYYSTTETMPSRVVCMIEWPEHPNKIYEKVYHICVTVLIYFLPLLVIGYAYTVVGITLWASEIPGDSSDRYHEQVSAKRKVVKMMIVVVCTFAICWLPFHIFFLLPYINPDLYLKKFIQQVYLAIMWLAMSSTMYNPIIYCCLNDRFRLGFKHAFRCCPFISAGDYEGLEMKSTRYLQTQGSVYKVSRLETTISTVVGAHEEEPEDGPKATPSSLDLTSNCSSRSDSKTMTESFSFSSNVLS
# test: hNK1/CHO cell membrane radioligand binding assay ([3H]SP)
# particulars: ratio human/rat NK1
Non-standard residues stand in square brackets, D forms with d. Residues, ends and D or L forms follow the SMILES beside them. *: point of attachment. NH(3,5-(CF3)2-benzyl) = FC(F)(F)c1cc(CN*)cc(C(F)(F)F)c1; Dmt = Cc1cc(O)cc(C)c1C[C@H](N)C(=O)O; NMeF = CN[C@@H](Cc1ccccc1)C(=O)O
measurement_kind: Ki^hNK1/Ki^rNK1

molecule	result
CSCC[C@H](NC(=O)[C@H](Cc1ccccc1)N(C)C(=O)CNC(=O)[C@@H](C)NC(=O)[C@@H](N)Cc1c(C)cc(O)cc1C)C(=O)N1CCC[C@H]1C(=O)N[C@@H](CC(C)C)C(=O)N[C@@H](Cc1c[nH]c2ccccc12)C(=O)NCc1cc(C(F)(F)F)cc(C(F)(F)F)c1	1/7
Cc1cc(O)cc(C)c1C[C@H](N)C(=O)N[C@H](C)C(=O)NCC(=O)N(C)[C@@H](Cc1ccccc1)C(=O)N[C@@H](CCC(N)=O)C(=O)NCC(=O)N1CCC[C@H]1C(=O)N[C@@H](CC(C)C)C(=O)N[C@@H](Cc1c[nH]c2ccccc12)C(=O)NCc1cc(C(F)(F)F)cc(C(F)(F)F)c1 [AKG-SK-146] (H-[Dmt][dA]G[NMeF]QGPLW-{NH(3,5-(CF3)2-benzyl)}; N-terminus assumed)	1/15
Cc1cc(O)cc(C)c1C[C@H](N)C(=O)N[C@H](C)C(=O)NCC(=O)N[C@@H](Cc1ccccc1)C(=O)N1CCC[C@H]1C(=O)N[C@@H](CC(C)C)C(=O)N[C@@H](Cc1c[nH]c2ccccc12)C(=O)NCc1cc(C(F)(F)F)cc(C(F)(F)F)c1	1/19

* * *

# subject_of_test: MOR
# test: Radioligand binding assay at μ opioid receptor
# particulars: log IC50 ± error
# Description: Binding affinities of these ligands were measured on radioligand binding assays. […] ([43]).
Non-standard residues stand in square brackets, D forms with d. Residues, ends and D or L forms follow the SMILES beside them. *: point of attachment. NH(3,5-(CF3)2-benzyl) = FC(F)(F)c1cc(CN*)cc(C(F)(F)F)c1; NMeBn(3,5-(CF3)2) = CN(Cc1cc(C(F)(F)F)cc(C(F)(F)F)c1)*; NMePhe(4-F) = CN[C@@H](Cc1ccc(F)cc1)C(=O)O; Phe(4-F) = N[C@@H](Cc1ccc(F)cc1)C(=O)O
Outcome: true for Log[IC50±] (μ) of at least -8; false for anything lower.

molecule	group_label
CC(C)C[C@H](NC(=O)[C@@H]1CCCN1C(=O)CNC(=O)[C@H](Cc1ccc(F)cc1)NC(=O)CNC(=O)[C@@H](C)NC(=O)[C@@H](N)Cc1ccc(O)cc1)C(=O)N[C@@H](Cc1c[nH]c2ccccc12)C(=O)NCc1cc(C(F)(F)F)cc(C(F)(F)F)c1 [AKG130] (H-Y[dA]G[Phe(4-F)]GPLW-{NH(3,5-(CF3)2-benzyl)})	true
CC(C)C[C@H](NC(=O)[C@@H]1CCCN1C(=O)[C@H](CCC(N)=O)NC(=O)[C@H](Cc1ccc(F)cc1)N(C)C(=O)CNC(=O)[C@@H](C)NC(=O)[C@@H](N)Cc1ccc(O)cc1)C(=O)N[C@@H](Cc1c[nH]c2ccccc12)C(=O)NCc1cc(C(F)(F)F)cc(C(F)(F)F)c1 [AKG143]	false
CC(C)C[C@H](NC(=O)[C@@H]1CCCN1C(=O)[C@H](Cc1ccc(O)cc1)NC(=O)CNC(=O)[C@H](Cc1ccccc1)NC(=O)[C@@H](C)NC(=O)[C@@H](N)Cc1ccc(O)cc1)C(=O)N[C@@H](Cc1c[nH]c2ccccc12)C(=O)N(C)Cc1cc(C(F)(F)F)cc(C(F)(F)F)c1 [QXP04] (H-Y[dA]FGYPLW-{NMeBn(3,5-(CF3)2)})	true
Cc1cc(O)cc(C)c1C[C@H](N)C(=O)N[C@H](C)C(=O)NCC(=O)N(C)[C@@H](Cc1ccc(F)cc1)C(=O)N[C@@H](CCC(N)=O)C(=O)N1CCC[C@H]1C(=O)N[C@@H](CC(C)C)C(=O)N[C@@H](Cc1c[nH]c2ccccc12)C(=O)NCc1cc(C(F)(F)F)cc(C(F)(F)F)c1 [AKG144]	false
CC(C)C[C@H](NC(=O)[C@@H]1CCCN1C(=O)CNC(=O)[C@H](Cc1ccc(F)cc1)N(C)C(=O)CNC(=O)[C@@H](C)NC(=O)[C@@H](N)Cc1ccc(O)cc1)C(=O)N[C@@H](Cc1c[nH]c2ccccc12)C(=O)NCc1cc(C(F)(F)F)cc(C(F)(F)F)c1 [AKG131] (H-Y[dA]G[NMePhe(4-F)]GPLW-{NH(3,5-(CF3)2-benzyl)})	true

* * *

# subject_of_test: MOR
# test: Radioligand binding assay at μ opioid receptor
# Protocol: Binding affinities of these ligands were measured on radioligand binding assays. […] ([43]).
pKi: −log10 of the molar value. Non-standard residues stand in square brackets, D forms with d. Residues, ends and D or L forms follow the SMILES beside them. *: point of attachment. NH(3,5-(CF3)2-benzyl) = FC(F)(F)c1cc(CN*)cc(C(F)(F)F)c1; NMeBn(3,5-(CF3)2) = CN(Cc1cc(C(F)(F)F)cc(C(F)(F)F)c1)*; NMeF = CN[C@@H](Cc1ccccc1)C(=O)O
Outcome: fulfilled for pKi of at least 9; not fulfilled for anything lower.

molecule	group_label
CC(C)C[C@H](NC(=O)[C@@H]1CCCN1C(=O)[C@H](CO)NC(=O)[C@H](Cc1ccccc1)N(C)C(=O)CNC(=O)[C@@H](C)NC(=O)[C@@H](N)Cc1ccc(O)cc1)C(=O)N[C@@H](Cc1c[nH]c2ccccc12)C(=O)NCc1cc(C(F)(F)F)cc(C(F)(F)F)c1 [AKG126] (H-Y[dA]G[NMeF]SPLW-{NH(3,5-(CF3)2-benzyl)})	not fulfilled
CC(C)C[C@H](NC(=O)[C@@H]1CCCN1C(=O)[C@H](Cc1ccc(O)cc1)NC(=O)CNC(=O)[C@H](Cc1ccccc1)NC(=O)[C@@H](C)NC(=O)[C@@H](N)Cc1ccc(O)cc1)C(=O)N[C@@H](Cc1c[nH]c2ccccc12)C(=O)N(C)Cc1cc(C(F)(F)F)cc(C(F)(F)F)c1 [QXP04] (H-Y[dA]FGYPLW-{NMeBn(3,5-(CF3)2)})	not fulfilled
Cc1cc(O)cc(C)c1C[C@H](N)C(=O)N[C@H](C)C(=O)NCC(=O)N(C)[C@@H](Cc1ccc(F)cc1)C(=O)N[C@@H](CCC(N)=O)C(=O)N1CCC[C@H]1C(=O)N[C@@H](CC(C)C)C(=O)N[C@@H](Cc1c[nH]c2ccccc12)C(=O)NCc1cc(C(F)(F)F)cc(C(F)(F)F)c1	fulfilled
CC(C)C[C@H](NC(=O)[C@@H]1CCCN1C(=O)CNC(=O)[C@H](Cc1ccccc1)N(C)C(=O)CNC(=O)[C@@H](C)NC(=O)[C@@H](N)Cc1ccc(O)cc1)C(=O)N[C@@H](Cc1c[nH]c2ccccc12)C(=O)NCc1cc(C(F)(F)F)cc(C(F)(F)F)c1 [AKG113] (H-Y[dA]G[NMeF]GPLW-{NH(3,5-(CF3)2-benzyl)})	not fulfilled
Cc1cc(O)cc(C)c1C[C@H](N)C(=O)N[C@H](C)C(=O)NCC(=O)N[C@@H](Cc1ccc(Cl)cc1)C(=O)N1CCC[C@H]1C(=O)N[C@@H](CC(C)C)C(=O)N[C@@H](Cc1c[nH]c2ccccc12)C(=O)NCc1cc(C(F)(F)F)cc(C(F)(F)F)c1	not fulfilled
CC(C)C[C@H](NC(=O)[C@@H]1CCCN1C(=O)[C@H](Cc1ccc(O)cc1)NC(=O)CNC(=O)[C@H](Cc1ccccc1)NC(=O)[C@@H](C)NC(=O)[C@@H](N)Cc1ccc(O)cc1)C(=O)N[C@@H](Cc1c[nH]c2ccccc12)C(=O)NCc1cc(C(F)(F)F)cc(C(F)(F)F)c1 [AKG114] (H-Y[dA]FGYPLW-{NH(3,5-(CF3)2-benzyl)})	not fulfilled
